Entry source: patent US20150118179A1

Test system: P. aeruginosa 73104
Assay: Biocidal activity in bacterial suspension (Example 18)
Type: cell-based, Pseudomonas aeruginosa
Details: Table 4; contact 30 min; 15 ppm [Cl+]; inoculum 2.26-2.98 × 10^5 CFU/mL
Method: Logarithmic-phase cultures of P. aeruginosa were prepared by initially suspending several colonies in cation-supplemented Mueller-Hinton broth (Oxoid, Nepean, Ontario, Canada) at a density equivalent to a 0.5 McFarland standard (1×10^8 cfu/mL). […] Biocidal activity of synthetic compounds was completed as followed. […] After being incubated at 37° C. for 24 hours, the viable bacterial colonies on the plates were counted. […]
recorded-metric: Bacteria reduction % (%)
Quick note: give the figure in %, leave out the unit.

q: Specify reported Bacteria reduction % for the molecule shown: "CCCCCCCCCCCC[N+](C)(C)CCn1cc(C[N+](C)(C)CCCN2C(=O)N(Cl)C(C)(C)C2=O)nn1"
a: 100

q: Specify reported Bacteria reduction % for the molecule shown: "CC1(C)C(=O)N(CCC[N+](C)(C)CCCN2C(=O)N(Cl)C(C)(C)C2=O)C(=O)N1Cl.[Cl-]"
a: 99.96

q: Specify reported Bacteria reduction % for the molecule shown: "CC1(C)C(=O)N(CCC[N+](C)(C)C)C(=O)N1Cl"
a: 99.99

q: Specify reported Bacteria reduction % for the molecule shown: "CCCCCCCCCCCC[N+](C)(C)CCn1cc(C[N+](C)(C)CCCN2C(=O)NC(C)(C)C2=O)nn1"
a: 100

q: Specify reported Bacteria reduction % for the molecule shown: "CC1(C)C(=O)N(CCC[N+](C)(C)CC[N+](C)(C)C)C(=O)N1Cl.[Cl-].[Cl-]"
a: 100

----------
test system: P. aeruginosa (73104); test: Antibacterial assessment in PBS suspension (Example 19); format: cell-based, Pseudomonas aeruginosa; details: Table 10, contact 30 min, [Cl+] 15 ppm, inoculum 10^5 cfu/ml
recorded-metric: Bacteria reduction % (%)
Quick note: give the figure in %, leave out the unit.

q: Specify reported Bacteria reduction % for the compound shown: "CCCCCC[N+](C)(C)CCCN1C(=O)N(Cl)C(C)(C)C1=O.[Cl-]"
a: 97.0

q: Specify reported Bacteria reduction % for the compound shown: "CC1(C)C(=O)N(CC[N+](C)(C)C)C(=O)N1Cl.[Cl-]"
a: 100

q: Specify reported Bacteria reduction % for the compound shown: "CCCCCCCCCCCC[N+](C)(C)CCCN1C(=O)NC(C)(C)C1=O"
a: 100

q: Specify reported Bacteria reduction % for the compound shown: "CCCCCCCCCCCC[N+](C)(C)CCCN1C(=O)N(Cl)C(C)(C)C1=O.[Cl-]"
a: 21.4

----------
system: methicillin resistant Staphylococcus aureus (MRSA 40065); type: cell-based; conditions: Table 10, contact 3 min, [Cl+] 15 ppm, inoculum 10^6 cfu/ml
recorded-metric: Bacteria Reduction log10 (log10)
Quick note: give the figure in log10, leave out the unit.

q: Specify reported Bacteria Reduction log10 for the compound shown: "CCCCCC[N+](C)(C)CCCN1C(=O)N(Cl)C(C)(C)C1=O.[Cl-]"
a: 0.67

q: Specify reported Bacteria Reduction log10 for the compound shown: "CCCCCCCCCCCC[N+](C)(C)CCCN1C(=O)NC(C)(C)C1=O"
a: 0

q: Specify reported Bacteria Reduction log10 for the compound shown: "CCCCCCCCCCCC[N+](C)(C)CCCN1C(=O)N(Cl)C(C)(C)C1=O.[Cl-]"
a: 6.26

q: Specify reported Bacteria Reduction log10 for the compound shown: "CC1(C)C(=O)N(CC[N+](C)(C)C)C(=O)N1Cl.[Cl-]"
a: 0.63

----------
system: P. aeruginosa 73104; assay: Biocidal activity in bacterial suspension (Example 18); type: cell-based, Pseudomonas aeruginosa; details: Table 4; contact 30 min; 15 ppm [Cl+]; inoculum 2.26-2.98 × 10^5 CFU/mL
Exercise: state measured Bacteria reduction Log for each of the compounds provided.
State the value with its unit after it.

q: Specify reported Bacteria reduction Log for the compound shown: CC1(C)C(=O)N(CCC[N+](C)(C)CCCN2C(=O)N(Cl)C(C)(C)C2=O)C(=O)N1Cl.[Cl-] [Compound 14]
a: 3.39 Log

q: Specify reported Bacteria reduction Log for the compound shown: CCCCCCCCCCCC[N+](C)(C)CCn1cc(C[N+](C)(C)CCCN2C(=O)N(Cl)C(C)(C)C2=O)nn1 [Compound 16]
a: 5.47 Log

q: Specify reported Bacteria reduction Log for the compound shown: CC1(C)C(=O)N(CCC[N+](C)(C)C)C(=O)N1Cl [Compound 2]
a: 4.02 Log

q: Specify reported Bacteria reduction Log for the compound shown: CC1(C)C(=O)N(CCC[N+](C)(C)CC[N+](C)(C)C)C(=O)N1Cl.[Cl-].[Cl-] [Compound 12]
a: 4.82 Log

q: Specify reported Bacteria reduction Log for the compound shown: CCCCCCCCCCCC[N+](C)(C)CCn1cc(C[N+](C)(C)CCCN2C(=O)NC(C)(C)C2=O)nn1 [Compound 15]
a: 5.47 Log

----------
Exercise: state measured Bacteria Reduction log10 for each of the molecules provided.
test system: P. aeruginosa (73104); assay: Antibacterial assessment in PBS suspension (Example 19); type: cell-based, Pseudomonas aeruginosa; conditions: Table 10, contact 10 min, [Cl+] 15 ppm, inoculum 10^5 cfu/ml
Quick note: give the figure in log10, leave out the unit.

q: Specify reported Bacteria Reduction log10 for the molecule shown: CC1(C)C(=O)N(CC[N+](C)(C)C)C(=O)N1Cl.[Cl-] [Compound 10]
a: 0.35

q: Specify reported Bacteria Reduction log10 for the molecule shown: CCCCCCCCCCCC[N+](C)(C)CCCN1C(=O)N(Cl)C(C)(C)C1=O.[Cl-] [Compound 8]
a: 5.80

q: Specify reported Bacteria Reduction log10 for the molecule shown: CCCCCCCCCCCC[N+](C)(C)CCCN1C(=O)NC(C)(C)C1=O [Compound 7]
a: 5.80

q: Specify reported Bacteria Reduction log10 for the molecule shown: CCCCCC[N+](C)(C)CCCN1C(=O)N(Cl)C(C)(C)C1=O.[Cl-] [Compound 6]
a: 0.30

----------
Exercise: state measured Bacteria reduction Log for each of the compounds provided.
tested on: P. aeruginosa 73104; experiment: Biocidal activity in bacterial suspension (Example 18); assay type: cell-based, Pseudomonas aeruginosa; settings: Table 4; contact 45 min; 15 ppm [Cl+]; inoculum 2.26-2.98 × 10^5 CFU/mL
Quick note: give the figure in Log, leave out the unit.

q: Specify reported Bacteria reduction Log for the compound shown: "CC1(C)C(=O)N(CCC[N+](C)(C)C)C(=O)N1Cl"
a: 4.67

q: Specify reported Bacteria reduction Log for the compound shown: "CC1(C)C(=O)N(CCC[N+](C)(C)CCCN2C(=O)N(Cl)C(C)(C)C2=O)C(=O)N1Cl.[Cl-]"
a: 5.47

q: Specify reported Bacteria reduction Log for the compound shown: "CCCCCCCCCCCC[N+](C)(C)CCn1cc(C[N+](C)(C)CCCN2C(=O)NC(C)(C)C2=O)nn1"
a: 5.47

q: Specify reported Bacteria reduction Log for the compound shown: "CCCCCCCCCCCC[N+](C)(C)CCn1cc(C[N+](C)(C)CCCN2C(=O)N(Cl)C(C)(C)C2=O)nn1"
a: 5.47

q: Specify reported Bacteria reduction Log for the compound shown: "CC1(C)C(=O)N(CCC[N+](C)(C)CC[N+](C)(C)C)C(=O)N1Cl.[Cl-].[Cl-]"
a: 5.47
